The reported numbers originate from ChEMBL document CHEMBL1949545.

# ASSAY_COMMENT: Inhibition of Helicobacter pylori FBA-2
MEASURED_QUANTITY: pKi
Scale for pKi: -log10 of concentration given in mol/L; no unit attached.

# input Tell me the measured pKi of `O=C(O)C(CCCCN(O)C(=O)COP(=O)(O)O)C(=O)O` , please.
# output 7.40

# input Tell me the measured pKi of `O=C(CO)N(O)CCCCOP(=O)(O)O` , please.
# output 5.92

# input Tell me the measured pKi of `O=C(O)C(CC(=O)N(O)CCCCOP(=O)(O)O)C(=O)O` , please.
# output 3.60

----------
Give measured Ki for each item. Keep answers brief.
# ASSAY_COMMENT: Inhibition of Mycobacterium tuberculosis FBA-2
Write the answer as a number in nM, unit excluded.

# input Tell me the measured Ki of `O=C(O)C(CCCCN(O)C(=O)COP(=O)(O)O)C(=O)O` , please.
# output 4

# input Tell me the measured Ki of `O=C(CO)N(O)CCCCOP(=O)(O)O` , please.
# output 175

# input Tell me the measured Ki of `O=C(O)C(CC(=O)N(O)CCCCOP(=O)(O)O)C(=O)O` , please.
# output 500000
